Assayed target: Thymidylate synthase (Homo sapiens, UniProt P04818)
Sequence (P04818 whole entry): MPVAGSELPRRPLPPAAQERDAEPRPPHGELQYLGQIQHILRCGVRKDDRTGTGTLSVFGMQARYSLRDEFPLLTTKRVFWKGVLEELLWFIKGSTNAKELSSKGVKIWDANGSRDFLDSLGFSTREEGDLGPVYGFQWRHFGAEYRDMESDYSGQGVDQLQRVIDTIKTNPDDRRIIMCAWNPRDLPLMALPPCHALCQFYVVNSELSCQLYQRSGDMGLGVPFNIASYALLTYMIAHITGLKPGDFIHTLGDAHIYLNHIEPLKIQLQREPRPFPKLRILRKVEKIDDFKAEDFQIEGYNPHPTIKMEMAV
Assay explanation: Inhibitory activity against human thymidylate synthase derived either from HeLa or KB cells
Assay type: cell-based
Measured parameter: IC50 (µM)
Give just the numeric value; µM need not be written.

Please look at this compound and report its IC50: C#CN(Cc1cnc2nc(N)nc(N)c2n1)c1ccc(C(=O)NC(CCC(=O)O)C(=O)O)cc1 (stereo unspecified)
0.02

---

Assayed target: Thymidylate synthase (Homo sapiens, UniProt P04818)
Assay explanation: Inhibitory constant of thymidylate synthase was determined in human AML cells
Catalogue of molecules with associated pKi
To interpret pKi, take it as minus log10 of a concentration measured in moles per litre.

# Molecule, Quantitative result
records = [
    ("CN(Cc1cnc2nc(N)[nH]c(=O)c2n1)c1ccc(C(=O)N[C@@H](CCC(=O)O)C(=O)O)cc1 [METHOPTERINE]", 6.00),
]

Then there is this molecule:
Please look at this molecule and report its pKi: Nc1nc2ncc(CNc3ccc(C(=O)N[C@@H](CCC(=O)O)C(=O)O)cc3)nc2c(=O)[nH]1 [FOLIC ACID]
4.40

---

Assayed target: Thymidylate synthase (Homo sapiens)
Assay explanation: Ability to inhibit thymidylate synthase derived from human leukemia K562 cells
Assay type: cell-based
Catalogue of compounds with associated pIC50
To interpret pIC50, take it as minus log10 of a concentration measured in moles per litre.

Consider the following illustrative entries.
# Compound, Quantitative result
records = [
    ("C#CCN(Cc1ccc2nc(N)nc(N)c2n1)c1ccc(C(=O)NC(CCC(=O)O)C(=O)O)cc1 (configuration not stated)", 5.90),
    ("CN(Cc1ccc2nc(N)[nH]c(=O)c2n1)c1ccc(C(=O)N[C@@H](CCC(=O)O)C(=O)O)cc1", 5.60),
    ("CN(Cc1ccc2nc(N)[nH]c(=O)c2c1)c1ccc(C(=O)N[C@@H](CCC(=O)O)C(=O)O)cc1", 6.54),
]

Please look at this compound and report its pIC50: Nc1nc(O)c2nc(CNc3ccc(C(=O)N[C@@H](CCC(=O)O)C(=O)O)cc3)ccc2n1
4.26

Please look at this compound and report its pIC50: C#CCN(Cc1cnc2nc(N)[nH]c(=O)c2n1)c1ccc(C(=O)N[C@@H](CCC(=O)O)C(=O)O)cc1
5.26

Please look at this compound and report its pIC50: Nc1nc2ncc(CNc3ccc(C(=O)N[C@@H](CCC(=O)O)C(=O)O)cc3)nc2c(=O)[nH]1
3.54

Please look at this compound and report its pIC50: C#CCN(Cc1ccc2nc(N)[nH]c(=O)c2n1)c1ccc(C(=O)N[C@@H](CCC(=O)O)C(=O)O)cc1
5.62
